Substrate: O=C(CO)[C@H](O)[C@H](O)COP(=O)(O)O
Test: coupled-enzyme spectrophotometric assay of RPE activity
Format: biochemical, Escherichia coli
Conditions: Co2+ enzyme
Recorded kcat/Km, one value per entry.
The figure you give is taken to be in M⁻¹ s⁻¹; do not add the unit.

Example entries and their recorded answers appear below.
# PROTEIN, UNITS OF MEASURE, REPORTED RESULT
records = [
    ("ALSE (D-allulose 6-phosphate 3-epimerase) (Escherichia coli K-12) (protein) MKISPSLMCMDLLKFKEQIEFIDSHADYFHIDIMDGHFVPNLTLSPFFVSQVKKLATKPLDCHLMVTRPQDYIAQLARAGADFITLHPETINGQAFRLIDEIRRHDMKVGLILNPETPVEAMKYYIHKADKITVMTVDPGFAGQPFIPEMLDKLAELKAWREREGLEYEIEVDGSCNQATYEKLMAAGADVFIVGTSGLFNHAENIDEAWRIMTAQILAAKSEVQPHAKTA", "M⁻¹ s⁻¹", 670),
    ("ALSE (D-allulose 6-phosphate 3-epimerase) (Escherichia coli K-12; DEL196-196) (protein) MKISPSLMCMDLLKFKEQIEFIDSHADYFHIDIMDGHFVPNLTLSPFFVSQVKKLATKPLDCHLMVTRPQDYIAQLARAGADFITLHPETINGQAFRLIDEIRRHDMKVGLILNPETPVEAMKYYIHKADKITVMTVDPGFAGQPFIPEMLDKLAELKAWREREGLEYEIEVDGSCNQATYEKLMAAGADVFIVGSGLFNHAENIDEAWRIMTAQILAAKSEVQPHAKTA", "M⁻¹ s⁻¹", 33000),
]

As a next step, examine the protein that follows.
Query ALSE (D-allulose 6-phosphate 3-epimerase) (Escherichia coli K-12; DEL197-197) (protein) MKISPSLMCMDLLKFKEQIEFIDSHADYFHIDIMDGHFVPNLTLSPFFVSQVKKLATKPLDCHLMVTRPQDYIAQLARAGADFITLHPETINGQAFRLIDEIRRHDMKVGLILNPETPVEAMKYYIHKADKITVMTVDPGFAGQPFIPEMLDKLAELKAWREREGLEYEIEVDGSCNQATYEKLMAAGADVFIVGTGLFNHAENIDEAWRIMTAQILAAKSEVQPHAKTA yields kcat/Km of 85000

// data source = paper PMC2597415
